Cited source for all entries: PubChem BioAssay

molecular target: Albumin (Bos taurus) (UniProt P02769); assay: bovine serum albumin binders on microarray, profiling panel, artefact control for SMM control protein annotation, biochemical, small-molecule microarray, Alexa647 label, 635/667 nm fluorescence (AID 1118); details: BSA-A647 binding, fluorescence 635 nm, higher = more signal;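 note: score merges 667 nm emission intensity and signal-to-noise per printed compound spot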
Sequence (P02769 whole entry, looked up): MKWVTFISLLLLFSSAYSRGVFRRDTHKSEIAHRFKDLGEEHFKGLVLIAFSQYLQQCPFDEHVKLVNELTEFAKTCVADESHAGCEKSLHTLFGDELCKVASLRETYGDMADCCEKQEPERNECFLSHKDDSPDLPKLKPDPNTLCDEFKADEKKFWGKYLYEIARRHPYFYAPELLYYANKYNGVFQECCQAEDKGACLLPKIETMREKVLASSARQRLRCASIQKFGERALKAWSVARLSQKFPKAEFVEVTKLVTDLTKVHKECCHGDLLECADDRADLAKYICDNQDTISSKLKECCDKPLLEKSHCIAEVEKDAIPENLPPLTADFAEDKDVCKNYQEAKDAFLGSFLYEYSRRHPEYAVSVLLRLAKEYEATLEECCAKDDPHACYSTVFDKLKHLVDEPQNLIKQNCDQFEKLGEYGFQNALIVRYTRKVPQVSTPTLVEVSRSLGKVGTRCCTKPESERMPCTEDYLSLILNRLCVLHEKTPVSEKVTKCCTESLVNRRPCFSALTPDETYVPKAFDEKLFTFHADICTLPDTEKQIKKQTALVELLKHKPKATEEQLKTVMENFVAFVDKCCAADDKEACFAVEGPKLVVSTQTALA
Everything with composite z-score lower than 0.8 is no (0); everything else, including exactly 0.8, is yes (1).

Consider the following illustrative entries.
[[record]]
compound = "CC(C)[Si]1(C(C)C)OCc2cc(-c3ccc(-c4ccc(Cl)c(Cl)c4)o3)nc(-c3ccc(Oc4ccccc4)cc3)c21"
targetorsystem = "Albumin (Bos taurus) (UniProt P02769)"
answerlabel = "no (0)"

[[record]]
compound = "COCCOC(=O)N1C(=O)[C@@]2(c3cc(C#CCNC(N)=O)ccc31)[C@H](c1ccccc1OCCO)N1[C@H](c3ccccc3)[C@H](c3ccccc3)OC(=O)[C@H]1[C@@H]2C(=O)N1CCCCCCC1"
targetorsystem = "Albumin (Bos taurus) (UniProt P02769)"
answerlabel = "no (0)"

[[record]]
compound = "[N-]=[N+]=Nc1ccccc1C[C@]1(C(=O)N2CCCCC2)N=C(c2ccc(OCCCO)cc2)O[C@H]1c1ccccc1"
targetorsystem = "Albumin (Bos taurus) (UniProt P02769)"
answerlabel = "no (0)"


Incoming: Please check the record CCOC(=O)C1=CCC(c2ccncc2)N(S(=O)(=O)c2ccc(C)cc2)C1 (configuration not stated) and state if its composite z-score is at or above 0.8.
Outgoing: yes (1)

Incoming: Please check the record COc1ccc(NN2C(C(O)c3ccc(F)cc3)C=CC3C(=O)N(C4CCCCC4)C(=O)C32)cc1 (configuration not stated) and state if its composite z-score is at or above 0.8.
Outgoing: yes (1)

Incoming: Please check the record CC(C)c1ccc(NN2C(C(O)C3=C[C@H]4C[C@@H](C3)C4(C)C)C=CC3C(=O)N(c4ccccc4)C(=O)C32)cc1 (some centres not stated) and state if its composite z-score is at or above 0.8.
Outgoing: yes (1)

====

As shown below, each of these compounds has a reported composite z-score value.
biological target: Neurogenic locus notch homolog protein 2 (Homo sapiens); test: Notch2 binders on small-molecule microarrays, primary screen, biochemical, small-molecule microarray, 635 nm fluorescence, stem cell growth factors (AID 1073); conditions: Notch2 binding, higher = more signal

[[record]]
compound = "COC(=O)[C@@]1(Cc2ccccc2)[C@H]2c3cc(C(=O)N(C)C)n(CCF)c3C[C@H]2CN1C(=O)c1ccccc1"
targetorsystem = "Neurogenic locus notch homolog protein 2 (Homo sapiens)"
metricname = "composite z-score"
result = 1.31

[[record]]
compound = "C=CC[C@@]1(C(=O)NCCCOC)N=C(c2ccc(OCCCO)cc2)O[C@@H]1c1ccccc1CN=[N+]=[N-]"
targetorsystem = "Neurogenic locus notch homolog protein 2 (Homo sapiens)"
metricname = "composite z-score"
result = 1.43

[[record]]
compound = "[N-]=[N+]=NCc1ccccc1C[C@]1(C(=O)N2CCCCC2)COC(c2ccc(OCCCO)cc2)=N1"
targetorsystem = "Neurogenic locus notch homolog protein 2 (Homo sapiens)"
metricname = "composite z-score"
result = 0.207

[[record]]
compound = "COC(=O)C1=CC(c2ccc(CO)cc2)=CC(C2CC2)N(Cc2cc3c(cc2Br)OCO3)C=C1C(=O)OC (configuration not stated)"
targetorsystem = "Neurogenic locus notch homolog protein 2 (Homo sapiens)"
metricname = "composite z-score"
result = 1.66

[[record]]
compound = "CCCCN1CC=CC23O[C@@H]4/C=C\\CCC(C)OC(=O)C4[C@H]2C(=O)N(CCO)[C@@H]3C1=O (some centres not stated)"
targetorsystem = "Neurogenic locus notch homolog protein 2 (Homo sapiens)"
metricname = "composite z-score"
result = -0.722


The value of composite z-score measured for the compound CO[C@H]1O[C@H](CO)[C@@H](OC(=O)CCc2ccccc2)[C@@H]2OC(=O)[C@@H](Cc3ccc4ccccc4c3)C/C=C/C[C@H](Cc3ccc4ccccc4c3)C(=O)O[C@@H]12 turned out to be -0.641

The value of composite z-score measured for the compound C=CCNC(=O)[C@@H]1[C@H]2C(=O)O[C@H](c3ccccc3)[C@H](c3ccccc3)N2[C@H](c2ccc(OCCO)cc2)[C@@]12C(=O)N(C(=O)OCCOC)c1ccccc12 turned out to be 0.964
